Each recorded value in this set is attributed to patent US20260116991A1.

Max MFI by entry:
target under test: T1, human GPC3 on CHO-K1-human GPC3 cells (CHOK1-hGPC3.2B5) (human, UniProt P51654 25-554)
T1 construct: whole, on cells
protocol details: FACS, CHOK1-hGPC3.2B5 cells;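 further: flow cytometry of humanized antibodies binding to the cells over one hour in the cold, read as cell mean fluorescence intensity, with EC50 obtained by curve fitting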
Numbers only; they are read as MFI.

binder	unit string	Max MFI
hAb005LH2L1b (antibody, human IgG1, V domains shown, Humanized F3.54.12; VH H2 + VL L1b; expressed as human IgG1) VH: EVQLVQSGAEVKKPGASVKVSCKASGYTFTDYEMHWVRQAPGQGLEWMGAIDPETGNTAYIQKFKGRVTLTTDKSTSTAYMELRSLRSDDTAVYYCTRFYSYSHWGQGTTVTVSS VL: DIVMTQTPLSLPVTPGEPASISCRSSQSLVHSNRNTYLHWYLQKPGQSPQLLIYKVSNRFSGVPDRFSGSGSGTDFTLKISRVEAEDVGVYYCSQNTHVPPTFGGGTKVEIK	MFI	4770
hAb006LH3L1c (antibody, human IgG1, V domains shown, Humanized F3.38.7; VH H3 + VL L1c; expressed as human IgG1) VH: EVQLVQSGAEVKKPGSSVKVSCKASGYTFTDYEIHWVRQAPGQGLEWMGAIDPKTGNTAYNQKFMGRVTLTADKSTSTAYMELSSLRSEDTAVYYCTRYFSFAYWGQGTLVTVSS VL: DIVMTQTPLSLPVTPGEPASISCRSSQTFVHSNRNTYLQWYLQKPGQSPQLLIYKVSNRFSGVPDRFSGSGSGTDFTLKISRVEAEDVGVYYCFQGSHVPYTFGQGTKLEIK	MFI	18000
hAb006LH3L1 (antibody, human IgG1, V domains shown, Humanized F3.38.7; VH H3 + VL L1; expressed as human IgG1) VH: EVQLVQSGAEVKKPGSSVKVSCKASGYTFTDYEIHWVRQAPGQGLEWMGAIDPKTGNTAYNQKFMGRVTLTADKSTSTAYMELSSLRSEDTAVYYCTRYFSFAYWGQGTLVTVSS VL: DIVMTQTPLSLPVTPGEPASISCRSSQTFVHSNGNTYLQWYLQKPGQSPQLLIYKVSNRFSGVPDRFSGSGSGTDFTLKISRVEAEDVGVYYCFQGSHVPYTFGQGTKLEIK	MFI	4920
hAb006LH3L1b (antibody, human IgG1, V domains shown, Humanized F3.38.7; VH H3 + VL L1b; expressed as human IgG1) VH: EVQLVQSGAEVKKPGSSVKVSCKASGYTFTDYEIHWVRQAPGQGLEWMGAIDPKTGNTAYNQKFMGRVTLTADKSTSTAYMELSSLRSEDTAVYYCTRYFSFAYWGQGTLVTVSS VL: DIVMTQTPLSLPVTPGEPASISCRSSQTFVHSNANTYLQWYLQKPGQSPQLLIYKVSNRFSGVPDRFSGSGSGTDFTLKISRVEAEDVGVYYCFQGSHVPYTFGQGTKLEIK	MFI	4670

Exercise: Using known records, supply Max MFI for hAb001H1aL1b (antibody, human IgG1, V domains shown, Humanized F2.169.2; VH H1a + VL L1b; expressed as human IgG1) VH: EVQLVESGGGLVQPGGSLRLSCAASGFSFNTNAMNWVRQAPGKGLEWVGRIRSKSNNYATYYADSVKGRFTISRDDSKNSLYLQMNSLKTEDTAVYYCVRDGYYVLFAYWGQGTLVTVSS VL: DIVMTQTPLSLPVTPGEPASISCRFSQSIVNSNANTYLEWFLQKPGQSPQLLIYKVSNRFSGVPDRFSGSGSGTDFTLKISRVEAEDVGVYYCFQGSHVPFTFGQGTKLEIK
Solution: 3070
